meta.source: PubChem BioAssay AID1159580

# experiment summary: chemical genetic growth profiling, strain panel (AID 1159580);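 further: tested at 20 µM; growth read once vehicle control cultures reached saturation at 30 °C; 1 = growth at the plate median or of vehicle wells; lower values mean less growth of the strain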
# experimental setup: S. cerevisiae deletion strains, growth OD, locus YOR083W, strain WHI5
Out of some 5,500 compounds screened, about 2,000 (36%) were called active. Inconclusive results (about 18%) are left out. No stated cut-off is given here; in the data, active means normalized growth mostly below about 0.91 (no sharp cut-off); inconclusive means no clear call, values can overlap the other calls; inactive means mostly above about 0.92. This is one part of the list.
Field 'call' accepts active, inactive

input: Please let me know the test result on file for `CC(C)[N+](C)(CCOC(=O)C1c2ccccc2Oc2ccccc21)C(C)C` .
output: inactive

input: Recorded test outcome, item `OCc1ccccc1O[C@@H]1O[C@H](CO)[C@@H](O)[C@H](O)[C@H]1O`
output: inactive

input: # outcome recorded in this test, key = CCCCCC(=O)O[C@]1(C(C)=O)CCC2C3CCC4=CC(=O)CC[C@]4(C)C3CC[C@@]21C (some centres not stated)
output: inactive

input: Recorded test call requested for `CCN(CC)C(=S)SSC(=S)N(CC)CC`
output: active

input: Look up the recorded call for `COc1ccc(-c2coc3c(O)c(OC)ccc3c2=O)cc1` in this test.
output: inactive

input: How was C=C1CC[C@H](O)C/C1=C/C=C1\CCC[C@]2(C)C([C@H](C)/C=C/[C@H](C)C(C)C)CC[C@@H]12 (some centres not stated) classified in this test?
output: inactive

input: What is the recorded call for this molecule in the test? `COc1ccc2c(c1)OC[C@@H](Cc1ccc(OC)c(OC)c1)[C@H]2O`
output: inactive

input: Called result for `CN=C(NC#N)NCCSCc1nc[nH]c1C`
output: inactive

input: Just curious, what result did `O=C(/C=C/C=C/c1ccc2c(c1)OCO2)N1CCCCC1` get here?
output: inactive

input: I'd appreciate the recorded outcome for `COc1ccc2c(c1)OC[C@@H](Cc1ccc(OC)c(OC)c1)[C@@H]2O` from this test.
output: inactive

input: Dear all, I need the recorded test outcome for `COc1ccc(C[C@H]2NC[C@H](O)[C@H]2OC(C)=O)cc1` , thank you.
output: active

input: Lab log entry: `COC(=O)COc1cc(Cl)c(Cl)cc1Cl` — outcome as called in the assay?
output: inactive

input: Each molecule tested received a call. Report the one for O=C(O)C1CC([C@@H]2CCCCN2)CN2CCCCC12 (some centres not stated) .
output: inactive

input: Could you check what this test reported for CCC(C(=O)O)c1ccccc1 (configuration not stated) ?
output: inactive

input: What outcome does the record of this test show for `CC(C)(N=NC(C)(C)C(=N)N)C(=N)N` ?
output: inactive

input: Please let me know the test result on file for `CCSC(=N)N` .
output: inactive

input: Hi team, can someone confirm the assay call for `COc1cc(OC)c2c(c1)O[C@H](c1ccc(OC)c(OC)c1)[C@@H](O)C2` ?
output: inactive

input: Given CC(=O)O[C@H]1C(=O)[C@@]2(C)C([C@H](OC(=O)c3ccccc3)[C@]3(O)C[C@H](O)C(C)=C1C3(C)C)[C@]1(OC(C)=O)CO[C@@H]1C[C@@H]2O (some centres not stated) , state the outcome it received in this test.
output: inactive

input: Short answer needed: outcome of this test for CC1(C)C2CC[C@]3(C)C(C(=O)C=C4[C@@H]5C[C@@](C)(C(=O)O)CC[C@]5(C)CC[C@]43C)[C@@]2(C)CC[C@@H]1OC(=O)CCC(=O)O (some centres not stated) ?
output: inactive

input: // return assay outcome for CC(C)CC1C(=O)N2CCC[C@H]2C2(O)O[C@](NC(=O)C3C=C4c5cccc6[nH]c(Br)c(c56)C[C@H]4N(C)C3)(C(C)C)C(=O)N12 (some centres not stated)
output: inactive

input: Per the records of this test, what outcome belongs to NC[C@@H]1O[C@H](O[C@@H]2[C@@H](CO)OC(O[C@@H]3[C@@H](O)[C@H](N)C[C@H](N)[C@H]3OC3O[C@H](CN)[C@@H](O)[C@H](O)[C@H]3N)[C@@H]2O)[C@H](N)[C@@H](O)[C@@H]1O (some centres not stated) ?
output: inactive

input: Tell me the assay call for CO[C@H]1C[C@H](O[C@H]2[C@H](C)[C@@H](OC3O[C@H](C)C[C@H](N(C)C)[C@H]3O)[C@@H](C)C[C@]3(CO3)C(=O)[C@H](C)[C@@H](O)[C@@H](C)[C@@H](C)OC(=O)[C@@H]2C)O[C@@H](C)[C@@H]1O (some centres not stated) please.
output: inactive

input: Give the logged outcome of this assay for the following molecule: `O=C(O)COc1cc(Cl)c(Cl)cc1Cl`
output: inactive

input: What outcome does the record of this test show for CC(=O)O[C@]1(C(C)=O)CCC2C3C=C(C)C4=CC(=O)CCC4(C)C3CCC21C (some centres not stated) ?
output: inactive

input: For this molecule, state the assay outcome: CC(=O)O[C@@](C)(CCC=C(C)C)C1CC=C(C)CC1 (some centres not stated)
output: inactive

input: Look up the recorded call for CC(=O)OC1CC23CC24CCC(OC2OCC(O)C(O)C2O)C(C)(C)C4CCC3C2(C)CC3OC4(CC(C)C3C12C)OC(O)C1(C)OC41 (configuration not stated) in this test.
output: inactive

input: Identify the outcome logged in this assay for the molecule shown: CC(=O)O[C@]1(C(C)=O)CCC2C3C=C(Cl)C4=CC(=O)CC[C@]4(C)C3CC[C@@]21C (some centres not stated)
output: inactive

input: Answer briefly: the call reported for `NC(=O)N1c2ccccc2CC(=O)c2ccccc21` in this assay.
output: inactive

input: What was the test verdict on CN1C2CC3C[C@H]1C(O3)C2O (some centres not stated) ?
output: inactive

input: Which result was noted for this molecule in the test: CC1(C)C2CC[C@]3(C)C(C(=O)C=C4[C@@H]5C[C@@](C)(C(=O)O)CC[C@]5(C)CC[C@]43C)[C@@]2(C)CC[C@@H]1O (some centres not stated)
output: inactive

input: I would be grateful if you could indicate the recorded call for `COc1ccc2cc1Oc1ccc(cc1)C[C@H]1c3cc(c(OC)cc3CCN1C)Oc1c(OC)c(OC)cc3c1[C@H](C2)N(C)CC3` .
output: inactive

input: Any idea what this test logged for `CC[C@@H](CO)NCCN[C@@H](CC)CO` ?
output: inactive

input: Could you kindly confirm the outcome this assay logged for `O=[N+]([O-])O[C@H]1CO[C@H]2[C@@H]1OC[C@H]2O[N+](=O)[O-]` ?
output: inactive

input: Give the logged outcome of this assay for the following molecule: COC(=O)C1=COC(OC2OC(CO)C(O)C(O)C2O)C2C(C)CC(=O)C12O (configuration not stated)
output: inactive

input: Recorded test call requested for CC1(C)C2CC[C@]3(C)C(C(=O)C=C4[C@H]5C[C@@](C)(C(=O)O)CC[C@]5(C)CC[C@]43C)[C@@]2(C)CC[C@@H]1O (some centres not stated)
output: inactive

input: Could you please tell me the result logged for `NC(N)=Nc1nc(CSCCC(N)=NS(N)(=O)=O)cs1` in this assay?
output: inactive

input: // param item: CCC1(C)CC(=O)NC1=O (configuration not stated) ; yields the recorded call
output: inactive

---

# experiment summary: chemical genetic growth profiling, strain panel (AID 1159580);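 further: tested at 20 µM; growth read once vehicle control cultures reached saturation at 30 °C; 1 = growth at the plate median or of vehicle wells; lower values mean less growth of the strain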
# experimental setup: S. cerevisiae deletion strains, growth OD, locus YML120C, strain ndi1, hits give low values
Out of some 5,500 compounds screened, about 2,000 (36%) were called active. Not shown: some 18% with an inconclusive outcome. This is one part of the list.
Answer each item with its documented normalized growth.
A bare number is all that is needed in reply.

input: Report measured normalized growth; entry is `Cc1ccc(O)cc1`
output: 1.01

input: Kindly indicate its recorded normalized growth. Item: CC(C(=O)O)c1ccc2c(c1)[nH]c1ccc(Cl)cc12 (stereo not given)
output: 0.985

input: Given NC[C@@H]1O[C@H](O[C@@H]2[C@@H](CO)OC(O[C@@H]3[C@@H](O)[C@H](N)C[C@H](N)[C@H]3OC3O[C@H](CN)[C@@H](O)[C@H](O)[C@H]3N)[C@@H]2O)[C@H](N)[C@@H](O)[C@@H]1O (stereo not given in full) , respond with its normalized growth.
output: 1.05

input: Return reported normalized growth. Input compound: `O=C(O)c1cc(=O)c2ccc(Cl)cc2[nH]1`
output: 1.01

input: Give the reported value of normalized growth for this record: `C=CCc1ccc2c(c1)OCO2`
output: 1.05

---

Could you please report measured normalized growth for the items listed next?
# experiment summary: chemical genetic growth profiling, strain panel (AID 1159580);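 further: tested at 20 µM; growth read once vehicle control cultures reached saturation at 30 °C; 1 = growth at the plate median or of vehicle wells; lower values mean less growth of the strain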
# experimental setup: S. cerevisiae deletion strains, growth OD, locus YNL233W, strain BNI4, hits give low values
About 2,000 (36%) of roughly 5,500 compounds were called active. Not shown: some 18% with an inconclusive outcome. The list shows a part of the results.
Please give only the number in your answer, with no unit.

input: Determine its reported normalized growth: `c1ccc(CC2=NCCN2)cc1`
output: 0.98

input: Retrieve normalized growth measured for `CNc1ccccc1C(=O)N1CCc2c([nH]c3ccccc23)C1=O` and print it.
output: 0.996

input: Write down normalized growth measured for item CCC(C(=O)O)c1ccccc1 (stereo not given)
output: 0.999

input: Dear colleague, please send me the reported normalized growth for `C[CH2][Hg][S]c1ccccc1C(=O)O` when you can.
output: 0.0515

input: Let me know recorded normalized growth for `c1ccc(CN(CC2=NCCN2)c2ccccc2)cc1` , thanks.
output: 1

input: Give the reported normalized growth for this compound. CN1Cc2c(ccc3c2OCO3)C2C(O)Cc3cc4c(cc3C21)OCO4 (stereo not given)
output: 1

input: Return the recorded normalized growth value; entry: CCC(C(N)=O)c1ccccc1 (stereo not given)
output: 1.01

input: Return value of normalized growth for input `O=C(O)c1ccccc1OP(=O)(O)O` , no commentary.
output: 1.02

input: Output measured normalized growth for this item: `COc1ccc(C(=O)c2ccccc2)c(O)c1`
output: 0.833

input: Dear colleague, please send me the reported normalized growth for `O=c1ccc2cc(O)c(O)cc2o1` when you can.
output: 1.01

input: Dear colleague, please send me the reported normalized growth for `COc1ccc(-c2coc3c(OC)c(OC)ccc3c2=O)cc1` when you can.
output: 0.884

input: Give a short answer stating reported normalized growth for `COc1ccc(-c2coc3c(O)c(OC)ccc3c2=O)cc1` .
output: 0.879

input: Give the measured normalized growth for `COc1cc(OC)c2c(c1)O[C@H](c1ccc(OC)c(OC)c1)[C@@H](O)C2`
output: 1.07

input: Please give measured normalized growth of the following entry: `COc1ccc(-c2coc3c(OC)c(O)ccc3c2=O)cc1`
output: 0.892

input: Give normalized growth for `COc1ccc(C(=O)c2ccccc2O)c(O)c1`
output: 0.869

input: Determine its reported normalized growth: `CC[C@@H](CO)NCCN[C@@H](CC)CO`
output: 1.02

input: Look up and report measured normalized growth for this entry: CN1CCc2cc3c(cc2C1O)OCO3 (stereo not given)
output: 0.998

input: Supply recorded normalized growth for CCC1(c2ccc(N)cc2)CCC(=O)NC1=O (stereo not given) here.
output: 0.994

input: Report normalized growth for `COC(=O)[C@H]1[C@H]2C[C@H]3c4[nH]c5ccccc5c4CCN3C[C@H]2CC[C@@H]1O`
output: 1.02

input: Indicate its recorded normalized growth; the compound in question is O=C(O)C1C(O)CCC2CN3CCc4c([nH]c5ccccc45)C3CC21 (stereo not given)
output: 1.02

input: Provide only the value of recorded normalized growth for `COc1ccc2c(c1)OC[C@@H](Cc1ccc(OC)c(OC)c1)[C@@H]2O`
output: 0.978

input: Note normalized growth for the compound shown: `COc1ccc(-c2coc3c(OC)c(OC)cc(O)c3c2=O)cc1`
output: 0.908

input: Provide only the value of recorded normalized growth for COc1ccc(CC2c3cc(OC)c(OC)cc3CCN2C)cc1OC (stereo not given)
output: 0.979

input: Provide measured normalized growth value, entry: CC1(C)S[C@@H]2[C@H](NC(=O)[C@H](NC(=O)N3CCNC3=O)c3ccccc3)C(=O)N2C1C(=O)O (stereo not given in full)
output: 1.04

input: Please give measured normalized growth of the following entry: COC(=O)C1[C@H]2C[C@H]3c4[nH]c5ccccc5c4CCN3C[C@@H]2CC[C@@H]1O (stereo not given in full)
output: 1.01
